tgt: T1, USP38, Q8NB14
T1 chain: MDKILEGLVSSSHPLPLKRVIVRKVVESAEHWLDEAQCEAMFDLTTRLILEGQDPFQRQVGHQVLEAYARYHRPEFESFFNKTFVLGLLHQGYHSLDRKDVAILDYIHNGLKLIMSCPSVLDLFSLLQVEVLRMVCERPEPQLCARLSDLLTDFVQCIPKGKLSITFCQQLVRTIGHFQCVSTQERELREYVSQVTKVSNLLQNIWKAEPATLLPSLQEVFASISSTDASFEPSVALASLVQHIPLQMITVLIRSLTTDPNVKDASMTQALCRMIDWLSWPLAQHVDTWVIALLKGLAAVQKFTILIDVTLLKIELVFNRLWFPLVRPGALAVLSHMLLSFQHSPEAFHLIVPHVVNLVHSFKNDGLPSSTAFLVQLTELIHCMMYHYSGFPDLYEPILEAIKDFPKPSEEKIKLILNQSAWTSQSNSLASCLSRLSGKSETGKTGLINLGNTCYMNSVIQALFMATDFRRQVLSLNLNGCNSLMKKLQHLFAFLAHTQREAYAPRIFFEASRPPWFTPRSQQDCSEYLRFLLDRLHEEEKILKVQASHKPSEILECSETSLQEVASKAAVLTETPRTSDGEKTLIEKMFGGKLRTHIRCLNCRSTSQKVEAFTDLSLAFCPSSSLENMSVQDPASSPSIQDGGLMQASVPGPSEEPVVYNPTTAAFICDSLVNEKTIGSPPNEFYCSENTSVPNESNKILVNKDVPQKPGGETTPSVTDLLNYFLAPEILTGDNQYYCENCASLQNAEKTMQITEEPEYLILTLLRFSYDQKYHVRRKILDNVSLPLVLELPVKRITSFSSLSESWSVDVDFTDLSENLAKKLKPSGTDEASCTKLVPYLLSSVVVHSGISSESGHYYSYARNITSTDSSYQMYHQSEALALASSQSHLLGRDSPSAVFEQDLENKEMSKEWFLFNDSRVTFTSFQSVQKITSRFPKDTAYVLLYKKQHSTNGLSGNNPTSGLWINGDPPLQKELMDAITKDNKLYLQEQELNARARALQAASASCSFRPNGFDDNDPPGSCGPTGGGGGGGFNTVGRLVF
assay method text: median log2 fold change of GCK-ALFA target abundance (FLAG IP / Myc IP barcode read proportion) (log2 ratio); each designed protein is fused to an ALFA-tag nanobody in HEK293 cells to bring the named protein to FLAG-tagged glucokinase (GCK); Myc marks an untargeted standard; higher = target protein stabilised (more abundant)
applied conditions: target protein: 3xFLAG-MCP-GCK-ALFA reporter; HEK293 landing pad (RPLP)
Recorded median log2 fold change determines the label; the label ranges are bin 1 = under -0.07, bin 2 = from -0.07 up to 0.1, bin 3 = 0.1 and over

usp_38_diff_out_4_126_547 (protein) GREKEFEKLKKEAEELLKKAKELLEKAKEALDKDPKKAQEYLDKALEYLGKLAKLLREMRRVAEGDPELQKEVKELQKKADELVDEYTKAAEEIYLALAE	bin 3
usp_38_diff_out_13_133_53 (protein) AAAEARRARALALLEEAEARVEKLIKEAEKALKEGKIDEARKYVAEAAGTLLRTRDELFDLTADDPELRREVLRRLKELTKRLDKVIDKVEKAERERFLA	bin 2
usp_38_diff_out_16_25_195 (protein) SVEALLRAHDLIGRAAGLVLRARESEDPEEQRRLLEEAIRHLEEALELLKEELKIDEETAEKIEKLIEEARRLLEEGAPFEEVIKVLEEAIDLAVDALAK	bin 3
usp_38_diff_out_18_28_386 (protein) EEERRRELERELRELERRLDELIDEAVAAATEALEAHPDDEEVWALVDELFDTLGRAAAALREARELLRAGGPLEEVERALREAREALERAERLLAELKA	bin 2
usp_38_diff_out_4_12_556 (protein) SPEEEEEARERALRELEERSRRLREEAERLLARVKETRDEATYKEANERLNKGLTELAELTLRTLELTDDDEELERILRLTDETFRYVSEKAAEMRELMK	bin 1

Hi there! Could you help me figure out the category for usp_38_diff_out_5_164_589 (protein) GVEKYLEEIDKLTEEAIAKIKELLAEAKKNPEKLDEVEKEIKELTDKTLDEINKITTEALEKFPEKAEEILSHYDEQVTKLLTAYQAALDELAKLKKEKA please? bin 1

Hi there! Could you help me figure out the category for usp_38_diff_out_18_28_402 (protein) MEEEIEKKIEEAEKRTDELIDEYVELGEKAFLKYHEDPSSEELLEKLDKLADELGKAAQAVNLMRENRDDPEKVEKEYAEFEKYYEKAKKLLEEIKKLLE please? bin 3

Hi there! Could you help me figure out the category for usp_38_diff_out_18_14_273 (protein) SEERREALLSNLKSLKKDVKEYTKRVLKLLEKNKNDPERVKRIYERAKRNLAGVKAYAEEVLKEAKEEGDEETLKAAEELIKEAKEAEEKIKKKVEEVLK please? bin 1

Hi there! Could you help me figure out the category for usp_38_diff_out_13_133_61 (protein) SAMEERRKEAREELEKAKKEIEELLKKAEEALKEGDIETAEKYVGEAAGLILDTRSDLMERTKDDPELRKEILKELKELEKKLNELIDKVVKAREEEFLK please? bin 3
